- Experimental system: BTK C481S (Homo sapiens (Human), UniProt Q06187, C481S)
- Sequence (Q06187 whole entry C481S): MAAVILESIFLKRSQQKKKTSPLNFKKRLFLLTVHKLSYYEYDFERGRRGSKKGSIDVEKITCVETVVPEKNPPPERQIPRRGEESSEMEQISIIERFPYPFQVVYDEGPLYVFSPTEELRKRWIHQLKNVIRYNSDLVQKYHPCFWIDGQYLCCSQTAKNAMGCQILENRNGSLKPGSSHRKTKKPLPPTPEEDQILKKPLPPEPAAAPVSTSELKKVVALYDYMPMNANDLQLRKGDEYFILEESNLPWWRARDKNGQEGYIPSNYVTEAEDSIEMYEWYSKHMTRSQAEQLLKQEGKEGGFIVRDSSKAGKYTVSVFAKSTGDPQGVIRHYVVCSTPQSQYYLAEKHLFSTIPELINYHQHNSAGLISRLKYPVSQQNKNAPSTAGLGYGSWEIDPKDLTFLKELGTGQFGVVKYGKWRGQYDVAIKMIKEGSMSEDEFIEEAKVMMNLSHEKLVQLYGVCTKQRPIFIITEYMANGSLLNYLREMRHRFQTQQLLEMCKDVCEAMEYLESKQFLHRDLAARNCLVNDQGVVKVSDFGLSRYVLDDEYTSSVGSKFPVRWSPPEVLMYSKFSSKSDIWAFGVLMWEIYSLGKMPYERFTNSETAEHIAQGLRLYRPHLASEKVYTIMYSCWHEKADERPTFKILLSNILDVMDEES
- Test details: Binding kinetics measurements (Surface Plasmon Resonance) on BTK C481S
- Condition details: target residence time for BTK C481S, SPR
Could you please report measured Tau (h) BTK C418S (Act) for the items listed next?
One number for each entry, in h.

Hi there! I need Tau (h) BTK C418S (Act) for each item below, if you can.
1. C[C@H]1CC(=O)N[C@@H]2CCC[C@H](C2)n2nc(-c3ccc(C(=O)Nc4cc(C(F)(F)F)ccn4)cc3)c3c(N)ncc(c32)/C=C/CN1C [Example 151]
2. Nc1ncc2n3c(nc(-c4ccc(C(=O)Nc5cc(C(F)(F)F)ccn5)cc4)c13)[C@@H]1CCC[C@H](C1)NC(=O)CCCCC/C=C/2 [Example 131]
3. Nc1ncc2n3c(nc(-c4ccc(C(=O)Nc5cc(C(F)(F)F)ccn5)cc4)c13)C1CCC[C@H](C1)NC(=O)CCC/C=C\C2 [Example 133b]
4. Nc1ncc2c3c1c(-c1ccc(C(=O)Nc4cc(C(F)(F)F)ccn4)cc1)nn3[C@@H]1CC[C@H](C1)NC(=O)CCOCC/C=C/2 [Example 169]
5. C[C@@H]1CC(=O)N[C@@H]2CCC[C@H](C2)n2nc(-c3ccc(C(=O)Nc4cc(C(F)(F)F)ccn4)cc3)c3c(N)ncc(c32)/C=C/CCO1 [Example 157]
6. C[C@@H]1CC(=O)N[C@@H]2CCC[C@H](C2)n2nc(-c3ccc(C(=O)Nc4cc(C(F)(F)F)ccn4)cc3)c3c(N)ncc(c32)/C=C/CCN1 [Example 45]
7. Nc1ncc2c3c1c(-c1ccc(C(=O)Nc4cc(C(F)(F)F)ccn4)cc1)nn3[C@@H]1CCC[C@H](C1)NC(=O)CCC/C=C/2 [Example 47]
8. Nc1ncc2c3c1c(-c1ccc(C(=O)Nc4cc(C(F)(F)F)ccn4)cc1)nn3[C@@H]1CCC[C@H](C1)NC(=O)CCOC/C=C/2 [Example 25]

1: 8.25; 2: 5.25; 3: 7.08; 4: 6.60; 5: 2.42; 6: 3.17; 7: 4.68; 8: 12.17

Hi there! I need Tau (h) BTK C418S (Act) for each item below, if you can.
1. C[C@@H]1CC(=O)N[C@@H]2CC[C@H](C2)c2nc(-c3ccc(C(=O)Nc4cc(C(F)(F)F)ccn4)cc3)c3c(N)ncc(n23)/C=C/CCN1 [Example 207]
2. Nc1ncc2c3c1c(-c1ccc(C(=O)Nc4cc(C(F)(F)F)ccn4)cc1F)nn3[C@@H]1CCC[C@H](C1)NC(=O)CNC/C=C/2 [Example 8]
3. Nc1ncc2c3c1c(-c1ccc(C(=O)Nc4cc(C(F)(F)F)ccn4)cc1)nn3[C@@H]1CCC[C@H](C1)NC(=O)CCOCC/C=C/2 [Example 26]
4. CN1C/C=C/c2cnc(N)c3c(-c4ccc(C(=O)Nc5cc(C(F)(F)F)ccn5)cc4)nn(c23)[C@@H]2CCC[C@H](C2)NC(=O)CCC1 [Example 10]
5. Nc1ncc2c3c1c(-c1ccc(C(=O)Nc4ccccn4)cc1)nn3C1CCC[C@H](C1)NC(=O)CCCCC/C=C/2 [Example 24]
6. Nc1ncc2c3c1c(-c1ccc(C(=O)Nc4cc(C(F)(F)F)ccn4)cc1F)nn3[C@@H]1CCC[C@H](C1)NC(=O)CCC/C=C/2 [Example 7]
7. N#Cc1ccnc(NC(=O)c2ccc(-c3nc4n5c(cnc(N)c35)/C=C/COCCC(=O)N[C@@H]3CC[C@@H]4C3)cc2)c1 [Example 199]

1: 8.44; 2: 3.30; 3: 6.65; 4: 6.76; 5: 10.68; 6: 4.50; 7: 1.28

Hi there! I need Tau (h) BTK C418S (Act) for each item below, if you can.
1. C[C@@H]1C[C@@H](C)n2nc(-c3ccc(C(=O)Nc4cc(C(F)(F)F)ccn4)cc3)c3c(N)ncc(c32)/C=C/CCCCCC(=O)N1 [Example 172]
2. Nc1ncc2c3c1c(-c1ccc(C(=O)Nc4cc(C(F)(F)F)ccn4)cc1)nn3[C@@H]1CC[C@H](C1)NC(=O)[C@@H]1CCN1CC/C=C/2 [Example 174]

1. 4.28
2. 3.56
